target: T1, Cynomolgus Monkey c-Met-Flis-Fc ECD (cynomolgus monkey); assay: SPR Biacore, antibody captured, ECD-Fc analyte, 1:1 model
T1 construct: also called Cynomolgus Monkey cMet-ECD-Fc-Flis; cynomolgus monkey c-Met ECD
T1 sequence (chain, as listed by the source limits assumed): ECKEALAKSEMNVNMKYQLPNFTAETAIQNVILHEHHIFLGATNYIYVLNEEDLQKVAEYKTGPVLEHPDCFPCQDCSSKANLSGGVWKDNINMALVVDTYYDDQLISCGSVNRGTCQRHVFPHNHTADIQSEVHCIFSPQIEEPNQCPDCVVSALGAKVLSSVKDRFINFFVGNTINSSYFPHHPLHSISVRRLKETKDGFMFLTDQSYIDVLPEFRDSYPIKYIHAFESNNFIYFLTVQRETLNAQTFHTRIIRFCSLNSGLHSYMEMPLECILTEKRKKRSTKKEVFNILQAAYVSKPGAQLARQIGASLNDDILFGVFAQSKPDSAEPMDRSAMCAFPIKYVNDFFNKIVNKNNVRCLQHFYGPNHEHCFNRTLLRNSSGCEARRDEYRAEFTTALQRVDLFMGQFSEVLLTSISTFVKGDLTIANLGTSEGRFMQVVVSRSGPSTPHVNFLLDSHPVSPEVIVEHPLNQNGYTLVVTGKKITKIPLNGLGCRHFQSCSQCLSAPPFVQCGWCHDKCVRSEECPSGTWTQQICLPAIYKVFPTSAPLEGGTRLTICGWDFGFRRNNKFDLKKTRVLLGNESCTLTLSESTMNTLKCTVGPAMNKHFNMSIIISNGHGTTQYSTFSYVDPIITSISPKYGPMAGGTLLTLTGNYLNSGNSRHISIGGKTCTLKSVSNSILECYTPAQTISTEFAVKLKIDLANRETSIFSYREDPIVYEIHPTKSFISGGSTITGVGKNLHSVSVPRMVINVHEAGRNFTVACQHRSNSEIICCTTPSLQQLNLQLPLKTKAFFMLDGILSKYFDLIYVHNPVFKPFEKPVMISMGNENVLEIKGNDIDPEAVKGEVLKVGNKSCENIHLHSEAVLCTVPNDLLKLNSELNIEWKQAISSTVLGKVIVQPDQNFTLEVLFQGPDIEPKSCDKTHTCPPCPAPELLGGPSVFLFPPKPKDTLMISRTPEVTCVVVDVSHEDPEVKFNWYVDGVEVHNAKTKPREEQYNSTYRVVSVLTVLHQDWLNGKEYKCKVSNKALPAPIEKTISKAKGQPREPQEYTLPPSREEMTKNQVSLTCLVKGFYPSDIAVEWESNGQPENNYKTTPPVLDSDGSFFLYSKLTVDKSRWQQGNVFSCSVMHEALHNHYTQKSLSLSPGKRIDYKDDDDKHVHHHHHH
readout type: koff (s⁻¹)
One number for each entry, in s⁻¹.

Q: Given the entry C8-6 (antibody, human IgG2, kappa, V domains shown, Called IgG4, kappa; also called Mab C8-6) VH: QVQLVQSGAEVKKPGASVKVSCKASGYTFTDYYMHWVRQAPGQGLEWMGRVNPNRGGTTYNQKFEGRVTMTTDTSTSTAYMELRSLRSDDTAVYYCARTNWLDYWGQGTTVTVSS VL: DIQMTQSPSSLSASVGDRVTITCSVSSSVSSIYLHWYQQKPGKAPKLLIYSTSNLASGVPSRFSGSGSGTDFTLTISSLQPEDFATYYCIQYSGYPLTFGGGTKVEIKR , report its measured koff.
Result: 0.00045
